// data source = PubChem BioAssay (NCI)

Task for the reader: assign each of the following compounds its reported TGI.
Tested on: M14 melanoma
Assay: NCI tumour cell line growth inhibition, 48 h

compound	TGI
Cc1ccc([N+](=O)[O-])cc1NC(=O)/C(=N/NC(=S)NN)C1SC(=S)NC1=O (centres undefined)	> 100 µM
O=C(O)c1cc2ccc3ccccc3c2oc1=O	> 100 µM

Fill in TGI for each of the 8 compounds listed.
1. COc1ccc(C2CC(C)(O)Oc3cc4c(cc32)OCO4)cc1 (centres undefined)
2. O=c1[nH]nc2ccccc2c1Cc1ccccc1
3. Brc1cc(CCOC2CCCCO2)c(-c2sccc2CCOC2CCCCO2)s1 (centres undefined)
4. O=S(=O)(O)C(=Nc1cccc(Cc2ccccc2)c1)Nc1cccc(Cc2ccccc2)c1
5. O=CN/C=C/c1cccc(O)c1
6. CCCN(CCCc1ccccc1)CCc1ccc2[nH]c(=S)[nH]c2c1
7. CCOC(=O)c1cn2c(n1)sc1c(Cl)c(Cl)ccc12
8. CC(C)CC(NC(=O)OC(C)(C)C)C(=O)Nc1ccc(Nc2nc(F)nc(-c3c4ccccc4c4n3CCS4)n2)cc1 (centres undefined)

RESULT:
> 87.8 µM
> 100 µM
> 100 µM
31.8 µM
> 88.2 µM
40 µM
> 96.3 µM
35.1 µM
